TESTED_TARGET: Rice recombinant CYP701A6 (ent-kaurene oxidase) (Oryza sativa subsp. japonica, UniProt Q5Z5R4)
Construct: made in house; host or cells: insect cells (baculovirus vector)
Sequence (Q5Z5R4 whole entry): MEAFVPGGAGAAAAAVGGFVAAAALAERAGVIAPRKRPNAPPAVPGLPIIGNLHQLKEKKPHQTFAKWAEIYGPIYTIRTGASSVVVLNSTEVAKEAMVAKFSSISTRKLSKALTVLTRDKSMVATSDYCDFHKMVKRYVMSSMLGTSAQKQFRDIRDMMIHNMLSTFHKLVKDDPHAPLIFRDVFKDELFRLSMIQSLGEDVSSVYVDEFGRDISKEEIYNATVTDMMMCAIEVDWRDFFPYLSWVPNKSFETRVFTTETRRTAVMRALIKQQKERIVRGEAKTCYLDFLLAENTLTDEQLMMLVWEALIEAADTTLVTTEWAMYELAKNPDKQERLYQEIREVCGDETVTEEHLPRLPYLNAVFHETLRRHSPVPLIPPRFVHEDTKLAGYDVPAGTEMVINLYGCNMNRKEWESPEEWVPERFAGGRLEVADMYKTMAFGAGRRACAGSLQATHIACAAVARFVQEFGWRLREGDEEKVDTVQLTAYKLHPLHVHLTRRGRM
EXPERIMENT_DESCRIPTION: CYP701A6 inhibition assay (formation of end product KA)
Assay type: biochemical
QUANTITY_KIND: IC50 (nM)
State just the number; it will be interpreted in nM.

Req: If you can, please state the reported IC50 value of CC(C)(C)[C@H](O)/C(=C\c1ccc(Cl)cc1)n1cncn1 [UNI, S-uniconazole, reference compound] .
Resp: 57
